# assay.text: Cmax male Sprague-Dawley rat at 10 mg/kg, po measured up to 24 hrs by LC-MS/MS analysis
# Format: ADME, organism-based
# run.conditions: male, Sprague-Dawley, in vivo, read-out: Cmax
measured.attribute: Cmax (µg/mL)
Write it as a number; the unit µg/mL goes unstated.

Cmax in this record for `N#Cc1cccc(-c2nc(C(F)F)c(C(=O)O)n2OCc2csc(N)n2)c1` : 0.48

---

# measurement.target: UniProt:P11509
# Sequence (P11509 whole entry): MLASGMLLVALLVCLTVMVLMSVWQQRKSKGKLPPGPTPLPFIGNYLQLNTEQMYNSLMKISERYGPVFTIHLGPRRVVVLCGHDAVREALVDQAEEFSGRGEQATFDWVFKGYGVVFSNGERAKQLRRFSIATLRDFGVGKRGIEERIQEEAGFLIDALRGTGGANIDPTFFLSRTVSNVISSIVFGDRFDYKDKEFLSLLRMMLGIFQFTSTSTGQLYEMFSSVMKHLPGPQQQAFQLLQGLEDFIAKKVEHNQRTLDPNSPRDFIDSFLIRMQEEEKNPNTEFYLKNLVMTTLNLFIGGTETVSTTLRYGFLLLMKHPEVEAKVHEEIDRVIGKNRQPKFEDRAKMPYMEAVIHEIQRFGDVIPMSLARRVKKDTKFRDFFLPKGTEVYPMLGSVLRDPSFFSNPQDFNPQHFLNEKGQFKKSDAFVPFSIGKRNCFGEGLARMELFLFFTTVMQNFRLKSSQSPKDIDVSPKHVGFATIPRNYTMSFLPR
# assay.text: Inhibition of CYP2A6 in human liver microsomes using coumarin as substrate at 10 uM preincubated for 5 min followed by NADPH addition measured after 120 mins by LC-MS/MS analysis relative to control
# Type: ADME, Microsome
# run.conditions: probe coumarin, time 125 min
measured.attribute: inhibition at 2 h, 10 µM
Entry format: amount then unit.

> print(dat)
                                        smi  result
1  N#Cc1cccc(Oc2nc(-c3cccc(C#N)c3)ncc2C(=O)O)c1  -17.7%

For the next question, use this molecule.
inhibition at 2 h, 10 µM for UniProt:P11509 with input `N#Cc1cccc(-c2nc(C(F)F)c(C(=O)O)n2OCc2csc(N)n2)c1` equals -13.5%
